Target: human NaV 1.7 (Homo sapiens, UniProt Q15858)
Sequence (Q15858 whole entry): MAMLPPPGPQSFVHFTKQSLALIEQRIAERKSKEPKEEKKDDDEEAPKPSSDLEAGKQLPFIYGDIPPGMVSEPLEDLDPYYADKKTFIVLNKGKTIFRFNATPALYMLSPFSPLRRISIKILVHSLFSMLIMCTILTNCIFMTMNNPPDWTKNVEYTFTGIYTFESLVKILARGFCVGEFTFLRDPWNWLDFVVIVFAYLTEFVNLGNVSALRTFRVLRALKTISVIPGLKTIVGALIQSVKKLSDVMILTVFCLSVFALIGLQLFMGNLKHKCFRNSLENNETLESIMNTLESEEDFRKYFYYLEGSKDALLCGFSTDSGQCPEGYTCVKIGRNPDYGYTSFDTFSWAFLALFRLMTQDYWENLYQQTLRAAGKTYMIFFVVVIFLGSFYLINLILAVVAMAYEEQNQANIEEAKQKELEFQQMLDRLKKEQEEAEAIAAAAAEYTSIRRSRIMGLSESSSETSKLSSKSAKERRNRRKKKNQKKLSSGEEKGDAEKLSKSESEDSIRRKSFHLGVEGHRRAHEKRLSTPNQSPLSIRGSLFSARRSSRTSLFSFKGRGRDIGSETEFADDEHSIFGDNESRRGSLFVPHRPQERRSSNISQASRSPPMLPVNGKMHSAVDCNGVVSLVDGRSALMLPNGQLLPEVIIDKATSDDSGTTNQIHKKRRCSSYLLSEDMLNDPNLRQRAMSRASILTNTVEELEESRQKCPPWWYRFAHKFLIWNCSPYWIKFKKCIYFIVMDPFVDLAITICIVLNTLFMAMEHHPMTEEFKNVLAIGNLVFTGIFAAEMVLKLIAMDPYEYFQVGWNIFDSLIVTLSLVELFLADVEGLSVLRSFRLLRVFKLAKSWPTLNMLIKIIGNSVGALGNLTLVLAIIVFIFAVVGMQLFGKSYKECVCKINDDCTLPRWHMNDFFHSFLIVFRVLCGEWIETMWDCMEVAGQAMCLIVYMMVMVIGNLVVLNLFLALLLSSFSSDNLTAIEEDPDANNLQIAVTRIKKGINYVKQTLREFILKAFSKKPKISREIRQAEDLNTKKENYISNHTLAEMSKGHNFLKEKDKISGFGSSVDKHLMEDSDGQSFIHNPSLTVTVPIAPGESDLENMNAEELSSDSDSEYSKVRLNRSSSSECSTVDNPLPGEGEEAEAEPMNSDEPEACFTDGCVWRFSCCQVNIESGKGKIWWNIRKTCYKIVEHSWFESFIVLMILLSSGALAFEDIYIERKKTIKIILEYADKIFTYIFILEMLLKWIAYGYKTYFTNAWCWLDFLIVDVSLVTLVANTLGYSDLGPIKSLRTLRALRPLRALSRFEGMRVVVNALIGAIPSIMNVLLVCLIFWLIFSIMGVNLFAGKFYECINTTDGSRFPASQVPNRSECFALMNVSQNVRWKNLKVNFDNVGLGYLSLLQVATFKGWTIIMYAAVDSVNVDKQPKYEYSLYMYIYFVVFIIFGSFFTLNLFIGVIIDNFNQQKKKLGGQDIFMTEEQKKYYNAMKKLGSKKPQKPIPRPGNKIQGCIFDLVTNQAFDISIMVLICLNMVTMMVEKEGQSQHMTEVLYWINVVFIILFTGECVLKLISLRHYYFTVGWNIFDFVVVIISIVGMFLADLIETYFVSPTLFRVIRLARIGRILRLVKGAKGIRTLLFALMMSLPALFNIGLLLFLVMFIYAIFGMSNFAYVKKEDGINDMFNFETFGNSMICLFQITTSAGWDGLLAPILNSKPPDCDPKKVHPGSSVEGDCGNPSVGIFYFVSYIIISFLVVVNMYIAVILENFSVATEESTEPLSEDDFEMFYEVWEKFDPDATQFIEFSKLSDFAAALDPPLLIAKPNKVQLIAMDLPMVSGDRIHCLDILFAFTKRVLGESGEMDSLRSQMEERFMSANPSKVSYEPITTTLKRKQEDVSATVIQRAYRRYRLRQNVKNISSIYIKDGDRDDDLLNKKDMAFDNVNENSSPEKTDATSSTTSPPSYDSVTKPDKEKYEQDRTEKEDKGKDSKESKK
Assay: E-VIPR optical membrane potential assay with electrical stimulation
Settings: sodium channel inhibition; read-out: Binned Activity Data (IC50)
The following compounds are shown together with reported IC50 values.

Observe how each entry below is paired with its result.
compound="CC(C)(C)S(=O)(=O)c1ccc(C(=O)N2CCC3(CC2)Oc2ccccc2-c2nn(C(F)(F)F)cc23)cc1 [Compound 78]" value_observed="≤ 2000 nM"
compound="COc1c(C)cccc1C(=O)N1CCC2(CC1)Oc1cc(Cl)ccc1-n1cccc12 [Compound 605]" value_observed="≤ 2000 nM"
compound="COC(C)(C)c1ccc(C(=O)N2CCC3(CC2)Oc2cc(Cl)ccc2-n2cccc23)cc1C [Compound 193]" value_observed="≤ 2000 nM"
compound="O=C(c1ccccc1OC(F)F)N1CCC2(CC1)Oc1ccccc1-c1[nH]ncc12 [Compound 409]" value_observed="> 5000 nM"

Kindly review the next compound as well.
Query: Fill in IC50 for COc1ccc(C(=O)N2CCC3(CC2)Oc2ccccc2-n2ccc(C)c23)cc1C(F)(F)F [Compound 181] tested with human NaV 1.7 (Homo sapiens, UniProt Q15858).
Result: ≤ 2000 nM

----------
The following compounds are shown together with reported IC50 values.
Target: human NaV 1.7 (Homo sapiens)
Assay: E-VIPR optical membrane potential assay with electrical stimulation
Settings: sodium channel inhibition; read-out: Binned Activity Data (IC50)

Observe how each entry below is paired with its result.
smiles_input=COCc1ccc2c(c1)OC1(CCN(C(=O)c3ccc(S(=O)(=O)C(C)C)cc3)CC1)c1ccc(C#N)n1-2 assay_target="human NaV 1.7 (Homo sapiens)" value_observed="> 5000 nM"
smiles_input=CC(C)S(=O)(=O)c1ccc(C(=O)N2CCC3(CC2)Oc2cc(F)ccc2-n2c(C(F)(F)F)ccc23)cc1 assay_target="human NaV 1.7 (Homo sapiens)" value_observed="> 5000 nM"
smiles_input=COc1cccc(Cl)c1C(=O)N1CCC2(CC1)Oc1ccccc1-c1c2cnn1C assay_target="human NaV 1.7 (Homo sapiens)" value_observed="> 5000 nM"

Query: Fill in IC50 for COc1ccc(C(=O)N2CCC3(CC2)Oc2ccccc2-c2c3cnn2C)cc1Cl tested with human NaV 1.7 (Homo sapiens).
Result: 2000 to 5000 nM

Query: Fill in IC50 for CCS(=O)(=O)c1ccc(C(=O)N2CCC3(CC2)Oc2ccccc2-n2c(C(F)(F)F)ccc23)cc1 tested with human NaV 1.7 (Homo sapiens).
Result: ≤ 2000 nM

Query: Fill in IC50 for CCOc1ccc(C(=O)N2CCC3(CC2)Oc2ccccc2-c2c3cnn2C)cc1OC tested with human NaV 1.7 (Homo sapiens).
Result: ≤ 2000 nM

Query: Fill in IC50 for CN(C)C(=O)c1ccccc1C(=O)N1CCC2(CC1)Oc1ccccc1-c1c2cnn1C tested with human NaV 1.7 (Homo sapiens).
Result: 2000 to 5000 nM

Query: Fill in IC50 for Cn1ncc2c1-c1ccccc1OC21CCN(C(=O)c2ccc(OC(F)F)cc2OC(F)F)CC1 tested with human NaV 1.7 (Homo sapiens).
Result: ≤ 2000 nM

Query: Fill in IC50 for COc1cc(C(=O)N2CCC3(CC2)Oc2cc(Cl)ccc2-n2cccc23)ccc1C1(O)COC1 tested with human NaV 1.7 (Homo sapiens).
Result: ≤ 2000 nM

Query: Fill in IC50 for CCn1ncc2c1-c1ccccc1OC21CCN(C(=O)c2cccc(F)c2OC)CC1 tested with human NaV 1.7 (Homo sapiens).
Result: ≤ 2000 nM

----------
Molecular target: human NaV 1.7 (Homo sapiens)
Assay: E-VIPR optical membrane potential assay with electrical stimulation
Details: sodium channel inhibition; read-out: Binned Activity Data (IC50)
The following compounds are shown together with reported IC50 values.

smiles_input=COc1ccc(Cl)cc1C(=O)N1CCC2(CC1)Oc1ccccc1-c1c2cnn1C value_observed="> 5000 nM"
smiles_input=CC(C)Oc1ccc(C(=O)N2CCC3(CC2)Oc2ccccc2-n2c(C#N)ccc23)c(CO)c1 value_observed="≤ 2000 nM"

Query: Fill in IC50 for COc1cc(Cl)cc(C(=O)N2CCC3(CC2)Oc2cc(Cl)ccc2-n2cccc23)c1 tested with human NaV 1.7 (Homo sapiens).
Result: ≤ 2000 nM

----------
Biological target: human NaV 1.7 (Homo sapiens)
Test: E-VIPR optical membrane potential assay with electrical stimulation
Settings: sodium channel inhibition; read-out: Binned Activity Data (IC50)
metric.name: IC50

compound=O=C(c1cc(Cl)cc(C(F)(F)F)c1)N1CCC2(CC1)Oc1cc(Cl)ccc1-n1cccc12 metric_name=IC50 value_observed="≤ 2000 nM"
compound=CCc1ccc(C(=O)N2CCC3(CC2)Oc2ccccc2-n2c(C)ccc23)cc1OC metric_name=IC50 value_observed="≤ 2000 nM"
compound=CCn1ncc2c1-c1ccccc1OC21CCN(C(=O)c2ccc(S(C)(=O)=O)c(C)c2)CC1 metric_name=IC50 value_observed="≤ 2000 nM"

Query: Supply IC50 value. Item: CCCOc1ccc(C(=O)N2CCC3(CC2)Oc2ccccc2-n2cccc23)cc1OC
Result: ≤ 2000 nM

Query: Supply IC50 value. Item: COCCOc1ccc(C(=O)N2CCC3(CC2)Oc2ccccc2-c2c3ccn2C)cc1OC
Result: ≤ 2000 nM

Query: Supply IC50 value. Item: CCc1ccc(C(=O)N2CCC3(CC2)Oc2ccccc2-n2c(C(F)(F)F)ccc23)nc1
Result: 2000 to 5000 nM

Query: Supply IC50 value. Item: CC(c1ccc(C(=O)N2CCC3(CC2)Oc2ccccc2-n2c(C#N)ccc23)cc1)S(C)(=O)=O (centres unmarked)
Result: 2000 to 5000 nM

Query: Supply IC50 value. Item: COc1cc(C(=O)N2CCC3(CC2)Oc2cc(Cl)ccc2-n2cccc23)ccc1OCC(N)=O
Result: ≤ 2000 nM

----------
Biological target: human NaV 1.7 (Homo sapiens, UniProt Q15858)
Assay: E-VIPR optical membrane potential assay with electrical stimulation
Conditions: sodium channel inhibition; read-out: Binned Activity Data (IC50)
The following compounds are shown together with reported IC50 values.

Observe how each entry below is paired with its result.
compound=CC[C@@H](C)Oc1ccc(C(=O)N2CCC3(CC2)Oc2cc(Cl)ccc2-n2cccc23)cc1OC value_observed="≤ 2 µM"
compound=Cc1cc(C(=O)N2CCC3(CC2)Oc2ccccc2-n2cccc23)ccc1OC(C)C value_observed="≤ 2 µM"
compound=Cn1ncc2c1-c1cc(Cl)ccc1OC21CCN(C(=O)c2ccccc2OC(F)F)CC1 value_observed="≤ 2 µM"
compound=COc1cccc(C(=O)N2CCC3(CC2)Oc2ccccc2-c2c3cnn2C)c1OC value_observed="≤ 2 µM"
compound=Cc1cc(C(=O)N2CCC3(CC2)Oc2ccccc2-n2cccc23)ccc1C(C)(C)O value_observed="≤ 2 µM"

Query: Supply IC50 value. Item: CC(C)(CO)S(=O)(=O)c1ccc(C(=O)N2CCC3(CC2)Oc2ccccc2-n2c(C(F)(F)F)ccc23)cc1
Result: 2 to 5 µM

Query: Supply IC50 value. Item: Cn1ncc2c1-c1ccccc1OC21CCN(C(=O)c2ccc3nc(Cl)sc3c2)CC1
Result: > 5 µM

----------
Biological target: human NaV 1.7 (Homo sapiens)
Test: E-VIPR optical membrane potential assay with electrical stimulation
Conditions: sodium channel inhibition; read-out: Binned Activity Data (IC50)
pIC50: −log10 of the molar value.
The following compounds are shown together with reported pIC50 values.

smiles_input=COc1cc(C(=O)N2CCC3(CC2)Oc2cc(F)ccc2-n2cccc23)ccc1O[C@@H]1CCOC1 assay_target="human NaV 1.7 (Homo sapiens)" value_observed="≥ 5.70"

Query: Supply pIC50 value. Item: Cc1nc2ccc(C(=O)N3CCC4(CC3)Oc3ccccc3-c3c4cnn3C)cc2s1
Result: < 5.30

Query: Supply pIC50 value. Item: CCOc1cc(C(=O)N2CCC3(CC2)Oc2ccccc2-c2nn(C)cc23)ccc1OC
Result: ≥ 5.70

----------
The following compounds are shown together with reported pIC50 values.
Biological target: human NaV 1.7 (Homo sapiens, UniProt Q15858)
Experiment: E-VIPR optical membrane potential assay with electrical stimulation
Conditions: sodium channel inhibition; read-out: Binned Activity Data (IC50)
From the text: Assays for Detecting and Measuring NaV Inhibition Properties of Compound E-VIPR Optical Membrane Potential Assay Method with Electrical Stimulation Sodium channels are voltage-dependent proteins that can be activated by inducing membrane voltage changes by applying electric fields. The electrical stimulation instrument and methods of use are described in Ion Channel Assay Methods PCT/US01/21652, herein incorporated by reference and are referred to as E-VIPR. […] 7) Read Plate on E-VIPR. […]
pIC50: −log10 of the molar value.

Query: Supply pIC50 value. Item: COc1cc(C(=O)N2CCC3(CC2)Oc2ccccc2-c2c3cnn2C)ccc1S(=O)(=O)C(C)(C)C
Result: ≥ 5.70

Query: Supply pIC50 value. Item: N#Cc1cccc(C(=O)N2CCC3(CC2)Oc2cc(Cl)ccc2-n2cccc23)c1
Result: < 5.30

Query: Supply pIC50 value. Item: COc1ccc(C(=O)N2CCC3(CC2)Oc2ccccc2-c2c3cnn2C)c(OC(F)(F)F)c1
Result: ≥ 5.70

Query: Supply pIC50 value. Item: CCOc1cccc(C(=O)N2CCC3(CC2)Oc2ccccc2-n2c(C#N)ccc23)c1F
Result: ≥ 5.70

Query: Supply pIC50 value. Item: Cn1ncc2c1-c1ccccc1OC21CCN(C(=O)c2ccc(OC3CCCC3)cc2)CC1
Result: ≥ 5.70

Query: Supply pIC50 value. Item: COc1cc(F)cc(C(=O)N2CCC3(CC2)Oc2cc(Cl)ccc2-n2cccc23)c1
Result: ≥ 5.70
